# measured_target: ZYG11B (residues 490–728) (Homo sapiens)
# Construct: ZYG11B (residues 490–728) bearing an N-terminal SELF; 8xHis-SUMO (N, cleaved yes); made in house; host or cells: E. coli BL21 (DE3)
# Sequence (Q9C0D3 490-728): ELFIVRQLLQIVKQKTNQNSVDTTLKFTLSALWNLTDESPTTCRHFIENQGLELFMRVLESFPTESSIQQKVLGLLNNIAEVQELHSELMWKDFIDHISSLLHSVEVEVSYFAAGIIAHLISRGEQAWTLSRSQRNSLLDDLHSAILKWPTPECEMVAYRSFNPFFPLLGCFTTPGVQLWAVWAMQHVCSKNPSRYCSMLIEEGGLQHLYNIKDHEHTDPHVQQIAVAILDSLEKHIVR
# test_method_notes: ITC of peptides titrated into ZYG11B
# assay_setup: ZYG11B residues 490–728, 20 mM Tris-HCl pH 7.5, 150 mM NaCl, 16 °C, repeated at least twice, NB = no detectable binding
# Text: To further investigate the binding specificity of ZER1 and ZYG11B, we synthesized a set of eight-residue peptides (sequence: XFLHVGQD, X = any free Nt-residue), and carried out isothermal titration calorimetry (ITC) assays to quantify their binding affinities for ZER1 and ZYG11B. […] The rest of Nt-residues were disallowed for the binding to both ZER1 and ZYG11B (Fig. 1e, and Supplementary Fig. 1c–f). […]
pKd: −log10 of the molar value. No end group written: not given here.
measurement_name: pKd

input: Give recorded pKd. H-VFLHVGQD [VFLHVGQD]
output: < 4.00

* * *

# measured_target: ZER1 E600A (residues 469–766) (Homo sapiens, UniProt Q7Z7L7, E600A)
# Construct: wild-type (WT) and mutant ZER1 (residues 469–766) titrated with SFLHVGQD peptide; made in house; host or cells: E. coli BL21 (DE3)
# Sequence (Q7Z7L7 469-766 E600A): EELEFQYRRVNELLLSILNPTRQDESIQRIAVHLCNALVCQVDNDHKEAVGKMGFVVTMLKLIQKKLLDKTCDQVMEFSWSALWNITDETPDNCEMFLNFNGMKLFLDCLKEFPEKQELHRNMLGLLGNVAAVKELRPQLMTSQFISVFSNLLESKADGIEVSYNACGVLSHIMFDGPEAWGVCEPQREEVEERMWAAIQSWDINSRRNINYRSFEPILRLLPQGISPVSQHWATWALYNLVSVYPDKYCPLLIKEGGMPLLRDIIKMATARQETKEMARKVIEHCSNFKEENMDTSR
# test_method_notes: ITC of peptides with mutant ZER1 E600A
# Format: binding
# assay_setup: mutant ZER1 residues 469–766
No end group written: not given here.
measurement_name: Kd

input: Give the reported value of Kd for this record: SFLHVGQD [SFLHVGQD]
output: > 100 µM

* * *

# measured_target: ZER1 N597A (residues 469–766) (Homo sapiens, UniProt Q7Z7L7, N597A)
# Construct: wild-type (WT) and mutant ZER1 (residues 469–766) titrated with SFLHVGQD peptide; made in house; host or cells: E. coli BL21 (DE3)
# Sequence (Q7Z7L7 469-766 N597A): as the sequence (Q7Z7L7 469-766 E600A) above, with N129A, A132E counted along it
# test_method_notes: ITC of peptides with mutant ZER1 N597A
# assay_setup: mutant ZER1 residues 469–766, NB = no detectable binding
pKd: −log10 of the molar value. No end group written: not given here.
measurement_name: pKd

input: Write down pKd measured for item SFLHVGQD [SFLHVGQD]
output: < 4.00

* * *

# measured_target: ZER1 W552A (residues 469–766) (Homo sapiens, UniProt Q7Z7L7, W552A)
# Construct: wild-type (WT) and mutant ZER1 (residues 469–766) titrated with SFLHVGQD peptide; made in house; host or cells: E. coli BL21 (DE3)
# Sequence (Q7Z7L7 469-766 W552A): as the sequence (Q7Z7L7 469-766 E600A) above, with W84A, A132E counted along it
# test_method_notes: ITC of peptides with mutant ZER1 W552A
# assay_setup: mutant ZER1 residues 469–766, NB = no detectable binding
No end group written: not given here.
measurement_name: Kd

input: Tell me measured Kd for SFLHVGQD [SFLHVGQD] please.
output: > 100 µM

* * *

# measured_target: ZER1 D556A (residues 469–766) (Homo sapiens, UniProt Q7Z7L7, D556A)
# Construct: wild-type (WT) and mutant ZER1 (residues 469–766) titrated with SFLHVGQD peptide; made in house; host or cells: E. coli BL21 (DE3)
# Sequence (Q7Z7L7 469-766 D556A): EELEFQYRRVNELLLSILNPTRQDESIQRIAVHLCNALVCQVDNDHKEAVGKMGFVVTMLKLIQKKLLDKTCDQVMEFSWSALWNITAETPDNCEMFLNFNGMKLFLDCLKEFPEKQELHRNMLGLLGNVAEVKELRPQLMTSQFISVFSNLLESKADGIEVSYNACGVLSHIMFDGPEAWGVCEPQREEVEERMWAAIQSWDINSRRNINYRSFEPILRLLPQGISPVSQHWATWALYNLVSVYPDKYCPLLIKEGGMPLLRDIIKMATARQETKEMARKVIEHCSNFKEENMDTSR
# test_method_notes: ITC of peptides with mutant ZER1 D556A
# Type: binding
# assay_setup: mutant ZER1 residues 469–766
No end group written: not given here.
measurement_name: Kd

input: Answer briefly: Kd recorded on ZER1 D556A (residues 469–766) (Homo sapiens, UniProt Q7Z7L7, D556A) for SFLHVGQD [SFLHVGQD]
output: > 100 µM
